# Test system: OCI-AML2
# ASSAY: cell viability relative to vehicle control; higher = less cytotoxic;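 also: after 48 h exposure read by CellTiter-Glo luminescence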
# RUN_PARAMETERS: 10 µM; SRSF2 genotype: P95H/wt
Known cell viability of a selection of compounds

COMPOUND: Nc1nc(Nc2ccc(S(N)(=O)=O)cc2)nn1C(=O)c1c(F)cccc1F
cell viability [%]: 2.63
//
COMPOUND: Cc1cc2c(F)c(Oc3ncnn4cc(OC[C@@H](C)O)c(C)c34)ccc2[nH]1
cell viability [%]: 97.5
//
COMPOUND: O=C(O)CCn1c(O)c(C2=c3cc(Cl)ccc3=NC2=O)sc1=S
cell viability [%]: 107
//
COMPOUND: O=c1c2cc(O)c(O)cc2oc2cc(O)c([C@@H]3O[C@H](CO)[C@@H](O)[C@H](O)[C@H]3O)c(O)c12 [Mangiferin]
cell viability [%]: 86.5
//
COMPOUND: O=C(Nc1ccc(OC(F)(F)F)cc1)c1sccc1NCc1ccnc2ccccc12
cell viability [%]: 24
//
COMPOUND: CC(C)c1cc(C(=O)N2Cc3ccc(CN4CCN(C)CC4)cc3C2)c(O)cc1O
cell viability [%]: 18.1
//
COMPOUND: CC(=O)Oc1ccccc1C(=O)O.CC(=O)Oc1ccccc1C(=O)O.NC(N)=O [Carbasalate Calcium]
cell viability [%]: 102
//
COMPOUND: COC(=O)C1=CO[C@@H](O[C@@H]2O[C@H](CO)[C@@H](O)[C@H](O)[C@H]2O)[C@H]2[C@@H]1C(=O)C[C@@H]2C [Verbenalin]
cell viability [%]: 98.4
//
COMPOUND: CCOC(=O)c1ccc(NC2CCCCC2)c(N)c1 [Ferrostatin-1 (Fer-1)]
cell viability [%]: 94.3

====

# System: OCI-AML2
# ASSAY: cell viability relative to vehicle control; higher = less cytotoxic
# RUN_PARAMETERS: 10 µM; SRSF2 genotype: P95H/wt
Where a name gives a salt, the structure may show the parent alone.

COMPOUND: CCCc1nn(C)c2c(=O)[nH]c(-c3cc(S(=O)(=O)N4CCN(C)CC4)ccc3OCC)nc12 [Sildenafil Mesylate]
cell viability: 110%
//
COMPOUND: NC(=O)c1ncn([C@@H]2O[C@H](CO)[C@@H](O)[C@H]2O)c1N
cell viability: 93.1%
//
COMPOUND: COc1ccc([C@@H]2CC(=O)c3c(O)cc(O)cc3O2)cc1O
cell viability: 86.7%
//
COMPOUND: COc1c(N2C[C@@H]3CCCN[C@@H]3C2)c(F)cc2c(=O)c(C(=O)O)cn(C3CC3)c12
cell viability: 86.8%
//
COMPOUND: O=c1c2ccccc2oc2ccccc12 [Xanthone (Genicide)]
cell viability: 93.1%
//
COMPOUND: Cn1cnc2c(F)c(Nc3ccc(Br)cc3F)c(C(=O)NOCCO)cc21
cell viability: 39.5%
//
COMPOUND: Cc1cnc(NC(=O)C2=C(O)c3ccccc3S(=O)(=O)N2C)s1
cell viability: 86.6%
//
COMPOUND: Cc1ccc(-n2sc(=O)n(Cc3ccc(F)cc3)c2=O)cc1
cell viability: 50.6%
//
COMPOUND: Oc1cc(CNC(=S)/C=C/c2cc(O)c(O)c(Br)c2)cc(O)c1O
cell viability: 28.1%

====

# Test system: MARIMO
# ASSAY: cell viability relative to vehicle control; higher = less cytotoxic
# RUN_PARAMETERS: 10 µM; SRSF2 genotype: SRSF2 P95H/wt
Structures can show the parent of a compound that is named as a salt.

COMPOUND: Cc1ccc(Nc2nccc(N(C)c3ccc4c(C)n(C)nc4c3)n2)cc1S(N)(=O)=O [Pazopanib]
cell viability [%]: 96

COMPOUND: COc1cc2ncnc(Nc3ccc(F)c(Cl)c3)c2cc1OCCCN1CCOCC1 [Gefitinib (ZD1839)]
cell viability [%]: 63.4

COMPOUND: CC1=C(/C=C/C(C)=C/C=C/C(C)=C/C(=O)O)C(C)(C)CCC1 [All-trans Retinoic Acid (Tretinoin)]
cell viability [%]: 68.7

COMPOUND: C#CCN[C@@H]1CCc2ccccc21 [Rasagiline mesylate]
cell viability [%]: 105

COMPOUND: CC1OC2OC3C(OCC(O)C3O)OC(=O)C34CCC(C)(C)CC3C3=CCC5C6(C)CC(O)C(OC7OC(CO)C(O)C(O)C7OC7OCC(OC(=O)CC(C)(O)CC(=O)OC1C(OC1OCC(O)C(O)C1O)C2O)C(O)C7O)C(C)(CO)C6CCC5(C)C3(C)CC4O (stereo not given) [Tubeimoside II]
cell viability [%]: 46.2

COMPOUND: CN1CCN(c2cccc(Nc3nc4c(-c5ccc(S(C)(=O)=O)cc5)cccn4n3)c2)CC1
cell viability [%]: 67.1

COMPOUND: O=C(O)c1cccnc1Nc1cccc(C(F)(F)F)c1 [Niflumic acid]
cell viability [%]: 94.1

COMPOUND: COC(=O)c1ccc(O)c(C(=O)OC)c1 [Dimetghyl 4-Hydroxyisophthalate]
cell viability [%]: 95.2

COMPOUND: CC(=O)O[C@@H]1CC[C@@]2(C)[C@@H](CC[C@]3(C)[C@@H]2C(=O)C=C2[C@@H]4[C@@H](C)[C@H](C)CC[C@]4(C)CC[C@]23C)[C@@]1(C)C(=O)O
cell viability [%]: 106

COMPOUND: CO[C@H]1C[C@H](O[C@@H]2/C(C)=C/C[C@@H]3C[C@@H](C[C@]4(CC[C@H](C)[C@@H](C5CCCCC5)O4)O3)OC(=O)[C@@H]3C=C(C)/C(=N/O)[C@H]4OC/C(=C\C=C\[C@@H]2C)[C@]43O)O[C@@H](C)[C@@H]1O [Selamectin]
cell viability [%]: 3.71

COMPOUND: O=C(NCCN1CCOCC1)Nc1ccc(C(=O)/C=C/c2cccc(N3CCOCC3)n2)cc1
cell viability [%]: 21.2

COMPOUND: Cc1ccc(/C=C2/C(=O)C3(C)CCC2C3(C)C)cc1 (stereo not given) [4-Methylbenzylidene camphor]
cell viability [%]: 90

COMPOUND: CCN(C(=O)c1c(O)c2c(Cl)cccc2n(C)c1=O)c1ccccc1
cell viability [%]: 92.4

COMPOUND: C[C@@]1(F)[C@H](O)[C@@H](CO)O[C@H]1n1ccc(=O)[nH]c1=O [2'-deoxy-2'-fluoro-2'-C-methyluridine]
cell viability [%]: 87.2

COMPOUND: CC/C(=C(\c1ccc(O)cc1)c1ccc(OCCNC)cc1)c1ccccc1 [Endoxifen HCl]
cell viability [%]: 66

COMPOUND: CCCCCOC(=O)Nc1nc(=O)n([C@@H]2O[C@H](C)[C@@H](O)[C@H]2O)cc1F [Capecitabine (Xeloda)]
cell viability [%]: 99.7

COMPOUND: Cc1cc([N+](=O)[O-])ccc1NS(=O)(=O)c1cc(Cl)ccc1Cl
cell viability [%]: 96.4

COMPOUND: S=C=Nc1cccc(NC(=S)NCCCCNC(=S)Nc2cccc(N=C=S)c2)c1
cell viability [%]: 106

COMPOUND: COc1cc2nccc(Oc3ccc(NC(=O)C4(C(=O)Nc5ccc(F)cc5)CC4)cc3)c2cc1OC [Cabozantinib malate]
cell viability [%]: 67.3

COMPOUND: COc1cc2c(cc1OC)-c1cc3ccc4c(c3c[n+]1CC2)OCO4 [Epiberberine]
cell viability [%]: 98.2

COMPOUND: NS(=O)(=O)c1cc2c(cc1Cl)NC(C(Cl)Cl)NS2(=O)=O (stereo not given) [Trichlormethiazide (Achletin)]
cell viability [%]: 108

COMPOUND: O=C(Cn1nnc(-c2ccncc2)c1-c1ccccc1)Nc1ccc(-c2ccccc2)cn1
cell viability [%]: 51.6

COMPOUND: CC(C)=CC[C@@H](O)C1=CC(=O)c2c(O)ccc(O)c2C1=O [Shikonin]
cell viability [%]: 0.3

COMPOUND: CC(C)C(=O)OCC(=O)[C@@]12O[C@H](C3CCCCC3)O[C@@H]1C[C@H]1[C@@H]3CCC4=CC(=O)C=C[C@]4(C)[C@H]3[C@@H](O)C[C@@]12C [Ciclesonide]
cell viability [%]: 63.6

COMPOUND: CC(=O)c1ccc(O)cc1O [2,4-Dihydroxyacetophenone]
cell viability [%]: 93.5

COMPOUND: N#CC(=C(O)c1ccc(Cl)cc1Cl)c1nc2ccccc2c(=O)[nH]1 [HPI-4 (Ciliobrevin A)]
cell viability [%]: 98.9

COMPOUND: COc1cc(O)c(C(=O)Nc2nc(C(=O)NCCN(C(C)C)C(C)C)cs2)cc1OC [Acotiamide]
cell viability [%]: 98

COMPOUND: COC(=O)C1=C(C)NC(C)=C(C(=O)OCCN2CCN(C(c3ccccc3)c3ccccc3)CC2)C1c1cccc([N+](=O)[O-])c1 (stereo not given) [Manidipine dihydrochloride (CV-4093)]
cell viability [%]: 67.1

COMPOUND: CC1(C)S[C@@H]2[C@H](NC(=O)Cc3ccccc3)C(=O)N2[C@H]1C(=O)O.CCN(CC)CCOC(=O)c1ccc(N)cc1 [Penicillin G Procaine]
cell viability [%]: 104

COMPOUND: Cc1c[nH]c2nc(Nc3ccc(N4CCN(C)CC4)c(F)c3)nc(-c3cccc(CC#N)c3)c12
cell viability [%]: 4.43
